- target: LNX1_1, Q8TBB1
- Sequence (Q8TBB1 261-371): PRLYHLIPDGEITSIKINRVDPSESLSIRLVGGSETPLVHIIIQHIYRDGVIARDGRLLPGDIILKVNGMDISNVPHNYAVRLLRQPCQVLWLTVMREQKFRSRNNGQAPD
- assayExplanation: holdup assay
- Design: key: below the threshold = too weak to quantify, mostly under pKd 3.1 to 4
- experimentalConditions: plain residues with an end cap or a label only (N-terminal biotin on a linker: ahx)
experimentalReadout: pKd

binder="SDSSGQEYSL [KCTD3, Q9Y597]" result="below the threshold"
binder="TVICWPGSLV [LNX2, Q8N448]" result=4.79
binder="GYDWGPATDL [TJP3, O95049]" result=4.84
binder="HNAFLSVTTV [PDZRN4, Q6ZMN7]" result="below the threshold"

Reference for the values: paper PMC9482650
